// data source = the supplement of paper PMC9262897

Quick reference: growth of the listed items.
tested on: E. coli TESEC Mtb Alr; assay: growth (OD600 after 10 h); higher = more growth (less inhibition); conditions: arabinose 1000000 nM; compound 0.1 mM; raw OD600 reference: median of DMSO wells 0.193, cell-free background 0.041
Structures can show the parent of a compound that is named as a salt.

compound: COc1ccc(CN2CCNCC2)c(OC)c1OC [Trimetazidine dihydrochloride]
growth: 0.172
--
compound: C[C@]12C[C@H]3S[C@H]3C[C@@H]1CC[C@@H]1[C@@H]2CC[C@]2(C)[C@@H](O)CC[C@@H]12 [Epitiostanol]
growth: 0.15
--
compound: NCC(CC(=O)O)c1ccc(Cl)cc1 (racemic) [Baclofen (R,S)]
growth: 0.189
--
compound: CCN[C@@H](C)Cc1cccc(C(F)(F)F)c1 [Dexfenfluramine hydrochloride]
growth: 0.174
--
compound: NC(=O)CN1CCCC1=O [Piracetam]
growth: 0.184
--
compound: O=c1[nH]oc2c1CCNC2 [THIP Hydrochloride]
growth: 0.194
--
compound: CCOC(=O)c1cncn1[C@H](C)c1ccccc1 [Etomidate]
growth: 0.181
--
compound: Cc1cccc(C)c1NC1=NCCCS1 [Xylazine]
growth: 0.169
--
compound: CO[C@]12C[C@@H](COC(=O)c3cncc(Br)c3)CN(C)[C@@H]1Cc1cn(C)c3cccc2c13 [Nicergoline]
growth: 0.102
